- Measured Target: T1, human PVRIG on cells (human, UniProt Q6DKI7 1-326)
- T1 construct: whole, on cells; over-expressed on HEK cells or endogenous on Jurkat and CD8 T cells; also called hPVRIG; HEK hPVRIG cells
- T1 sequence (looked up): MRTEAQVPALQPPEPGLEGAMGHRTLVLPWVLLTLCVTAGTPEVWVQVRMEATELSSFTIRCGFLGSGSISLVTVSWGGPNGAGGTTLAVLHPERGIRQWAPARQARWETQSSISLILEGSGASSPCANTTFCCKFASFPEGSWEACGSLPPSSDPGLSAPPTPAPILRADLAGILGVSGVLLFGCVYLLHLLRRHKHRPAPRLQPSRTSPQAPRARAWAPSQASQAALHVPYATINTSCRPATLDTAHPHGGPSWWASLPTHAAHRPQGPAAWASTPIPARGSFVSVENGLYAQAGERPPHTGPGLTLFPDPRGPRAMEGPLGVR
- Assay Method Text: FACS, HEK hPVRIG over HEK parental cells, 3.3ug/ml
Parameter Measured: gMFIr HEK OE/par
Respond with the number and no other words.

These solved cases illustrate the format of a correct answer.
- Binder: "CHA.7.534 (antibody, V domains shown) VH: EVQLQQSGAELVKPGASVRLSCTASGFSIRDTYIHWVKQRPEQGLDWIGKIDPANGKSEYDPKFQGRATMTTDTSSNTAYLQLSSLTSEDTAVYYCTRYGYYPYFDVWGAGTTVTVFS VL: SIVMTQTPKFLLVSAGDRVAITCKASQSVRHDVVWYQQKPGQSPKLLIYYASSRYTGVPDRFTGSGYGTDFTFTISTVQAEDLALYFCLQDFSSPWTFGGGTKLEIK"
  Endpoint Result: 43.7
- Binder: "CHA.7.512 (antibody, V domains shown) VH: QIQLVQSGPELKKPRETVKISCKASGYTFTDYSMHWVKQAPGKGLKWMGWINTETGEPTYADDFKGRFAFSLEASASSAYLQINILKDEDTATYFCARSRGGYYEDYYALDYWGQGTSVTVSS VL: DIQMTQSPASLSASVGESVTITCRASGNIHYYLAWYQQKQGKSPQLLVYNAKNLADGVPSRFSGSGSGTQFSLKINSLQPEDFGSYYCQHFWISPPTFGGGTKLEIK"
  Endpoint Result: 5.12
- Binder: "CHA.7.502 (antibody, V domains shown) VH: DVQLVESGGDLVQPGGSRKLSCTASGFTFSNFGMHWVRQAPEKGLEWVAYISSGSSTIYYADTVKGRFTISRDNPENTLFLQMTSLRSEDTAMYYCTRLDYYTNSYSMDHWGQGTSVTVSS VL: QIVLTQSPALMSASPGEKVTLTCSASSSLPYIYWYQQKPGSSPKPWIYLTSNLASGVPARFSGSRSGTSYSLTISSVEAEDAATYYCQQWSSNPFTFGSGTKLEIK"
  Endpoint Result: 72

Specify reported gMFIr HEK OE/par for the binder shown: CHA.7.514 (antibody, V domains shown) VH: EVQLRQSGADLVKPGASVKLSCTASGFNIKDTYIDWVKQRPEQGLDWIGRIDPANGNTKYDPKFQGKATIITDTSSNTAYLQLSNLTSEDTAVYYCARYGSYPYFDYWGRGTTLAVSS VL: SIVMTQTPKFLLISAGDRVTITCKASQSVRNDVAWYQQKPGQSPKLLMYYASNRYTGVPDRFTGSGYGTDFTFTISTVQAEDLAVYFCQQDYSSPPTFGGGTKLEIK
49.8

State, in one line, measured gMFIr HEK OE/par of CHA.7.524 (antibody, V domains shown) VH: QVQLQQSGPEVVRPGVSVKISCKGSGYKFPDYVMHWVKQSHAKSLEWIGIISIYSGNTNYNQKFKGKATMTVDKSSSTAYMELARLTSEDSAIYYCAREGDLPMFAYWGQGTLVTVSA VL: QIVLTQSPAIMSASPGEKVTMTCNASSSVSYMYWYQQKPISSPRLLIYDTSNLASGVPVRFSGSGSGTSYSLTIGRMEAEDAATYYCQQWSSYPLTFGAGTKVEVK
48.3

Quick one: give measured gMFIr HEK OE/par for CHA.7.526 (antibody, V domains shown) VH: QVQLKESGPGLVAPSQSLSITCTVSGFSLTAYNINWVRQPPGKGLEWLGMIWGDGNTDYNSPLKSRLTISKDNSKSQVFLKMDSLQTDDTARYYCARDLKVRRDSPYTMDYWGQGTSVTVSS VL: NIMMTQSPSSLAVSAGEKVTMSCKSSQSVLYSSNQKNYLAWYQQKPGQSPKLLIYWASNRESGVPDRFTGSGSGTDFTLTISSVQAEDLAVYYCHQYLSSYTFGGGTKLEIK
47.3

Tell me its gMFIr HEK OE/par given CHA.7.522 (antibody, V domains shown) VH: QVQLQQPGSELVRPGTSVKLSCKASGYTFTSYWVHWVRQRHGQGLEWIGNVYPGSGSTNYDEKFKSKGTLTVDTSSSTAYMHLSSLTSEDSAVYYCTRGVLRFPLDYWGQGTTLTVSS VL: DIVMTQAAPSVPVTPGESVSISCRSSKSLLHSNGNTYLYWFLQRPGQSPHLLIYRMSNLASGVPDRFSGSGSGTAFTLRISRVEAEDVGVYYCMQHLEYPLTFGAGTKLELK as the entry.
10.1
